Recorded glycan array binding signal (z-score) for the following binders
- MEASURED TARGET: Gal(b1-3)GlcNAc(b1-3)Gal(b1-4)GlcNAc(b1-2)Man(a1-3)[Gal(b1-3)GlcNAc(b1-3)Gal(b1-4)GlcNAc(b1-2)Man(a1-6)]Man(b1-4)GlcNAc(b1-4)GlcNAc
- ASSAY NOTES: glycan array binding signal (z-score within array); higher = stronger binding
- EXPERIMENTAL CONDITIONS: glycan notation: IUPAC condensed, linker removed
About 410 targets per protein were measured; listed, in parts, are those with the strongest signals and a random draw of the rest.

| BINDER | glycan array binding signal (z-score) |
| --- | --- |
| OS9-MRH (Homo sapiens), Q13438 (protein) IPELLSPMRDAPCLLKTKDWWTYEFCYGRHIQQYHMEDSEIKGEVLYLGYYQSAFDWDDETAKASKQHRLKRYHSQTYGNGSKCDLNGRPREAEVRFLCDEGAGISGDYIDRVDEPLSCSYVLTIRTPRLCPHPLLRPPPSAAPQAI | 2.4 |
| Thrombomodulin (Mus musculus) (protein) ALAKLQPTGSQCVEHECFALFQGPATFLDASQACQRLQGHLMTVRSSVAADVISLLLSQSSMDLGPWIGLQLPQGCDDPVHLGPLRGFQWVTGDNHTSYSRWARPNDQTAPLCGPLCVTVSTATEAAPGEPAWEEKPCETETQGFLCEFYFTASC | -0.022 |
| Gal 12 (Homo sapiens), Q96DT0 (protein) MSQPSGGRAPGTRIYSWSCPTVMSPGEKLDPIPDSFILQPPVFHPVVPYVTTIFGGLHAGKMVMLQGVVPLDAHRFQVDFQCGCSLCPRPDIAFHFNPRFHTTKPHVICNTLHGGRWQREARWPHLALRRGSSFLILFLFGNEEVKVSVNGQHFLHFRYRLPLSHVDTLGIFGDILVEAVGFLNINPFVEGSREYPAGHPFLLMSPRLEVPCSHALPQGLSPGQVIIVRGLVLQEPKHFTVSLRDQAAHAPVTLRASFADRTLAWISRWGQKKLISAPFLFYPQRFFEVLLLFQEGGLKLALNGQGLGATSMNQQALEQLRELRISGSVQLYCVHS | -0.574 |

Just for reference, the supplement of paper PMC8728848 is where these values come from.
